Entries and their viability, T/C values follow.
Tested on: SUM149PT spheroids with HUVEC/MSC, viability
Test: Anticancer human tumor SUM149PT cell line growth inhibition [GQUAD];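 also: spheroids exposed to drugs for seven days before readout; percent viability relative to DMSO vehicle control taken as 100%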
Conditions: second compound 0.0316 µM; first compound 0.00999 µM; active compounds read low
Excerpt: DNA G-quadruplex Stabilizer Agents in Combinations in Complex Spheroids A high-throughput screen of multi-cell type tumor spheroids was designed to identify active combinations of DNA G-quadruplex stabilizer agents and targeted small molecules. […] Compounds. […] If the clinical Cmax for an agent had not been determined, the highest concentration tested was 10 microM. […]

| COMPOUND | viability, T/C, % |
| --- | --- |
| Cn1ncnc1[C@H]1c2n[nH]c(=O)c3cc(F)cc(c23)N[C@@H]1c1ccc(F)cc1 + Cc1cnc(CNC(=O)c2c(=O)c3ccc(N4CCCN(C)CC4)nc3n3c2sc2ccccc23)cn1 | 77.1 |
| Cn1ncnc1[C@H]1c2n[nH]c(=O)c3cc(F)cc(c23)N[C@@H]1c1ccc(F)cc1 + Cc1[nH]c2ccc(F)cc2c1-c1nc2c3cccnc3c3ncccc3c2[nH]1 | 103 |
| Cc1[nH]c2ccccc2c1CCNCc1ccc(/C=C/C(=O)NO)cc1 + Cc1[nH]c2ccc(F)cc2c1-c1nc2c3cccnc3c3ncccc3c2[nH]1 | 103 |
| Cc1[nH]c2ccccc2c1CCNCc1ccc(/C=C/C(=O)NO)cc1 + Cc1cnc(CNC(=O)c2c(=O)c3ccc(N4CCCN(C)CC4)nc3n3c2sc2ccccc23)cn1 | 90 |
| Cn1ncnc1[C@H]1c2n[nH]c(=O)c3cc(F)cc(c23)N[C@@H]1c1ccc(F)cc1 + CN(C)c1ccc(Nc2c3ccc(NC(=O)CCN4CCCC4)cc3nc3cc(NC(=O)CCN4CCCC4)ccc23)cc1 | 94.5 |
| CCc1c2c(nc3ccc(O)cc13)-c1cc3c(c(=O)n1C2)COC(=O)[C@]3(O)CC + CN(C)c1ccc(Nc2c3ccc(NC(=O)CCN4CCCC4)cc3nc3cc(NC(=O)CCN4CCCC4)ccc23)cc1 | 54.6 |

The measurements presented in this section are drawn from PubChem BioAssay AID2060484.
